The values you see were collected from the Human Domainome abundance scans (Beltran et al. 2025).

B1: Far upstream element-binding protein 1, residues 98 to 169; numbered along this chain, Q96AE4 (parent)
chain: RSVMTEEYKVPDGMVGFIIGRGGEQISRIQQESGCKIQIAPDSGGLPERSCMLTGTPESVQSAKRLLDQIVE

Variants of: B1
method.description: abundance fitness (aPCA) (normalised: wild type 0, dead -1); higher = more abundant; growth selection in yeast, the domain comes from the species named
settings: Homo sapiens

| sequence.chain | abundance fitness |
| --- | --- |
| RSVMTEEYKVPDGMVGFIIGRGGEQISRIQQESGCKIQIAPDSLGLPERSCMLTGTPESVQSAKRLLDQIVE [G44L] | -0.05 |
| RSVMTEEYKVPDGMVGFIIGRGGEQISRIQQESGCKIQIAPDSGGLPERSCMLTGVPESVQSAKRLLDQIVE [T56V] | -0.04 |
| RSVMTEEYKVPDGMVGFIIGRGGEQISRIQQESGCKIQIAPDSGGLPEWSCMLTGTPESVQSAKRLLDQIVE [R49W] | -0.318 |
| RSVMTEEYKVPDGMVGFIIGREGEQISRIQQESGCKIQIAPDSGGLPERSCMLTGTPESVQSAKRLLDQIVE [G22E] | -0.006 |
| RSVMTEVYKVPDGMVGFIIGRGGEQISRIQQESGCKIQIAPDSGGLPERSCMLTGTPESVQSAKRLLDQIVE [E7V] | -0.106 |
| RSVMTEEYKVPDGMVGFIIGRGGEQISRIQQESGCKIQIAPDSGGLPERSCMLTGTPESVQCAKRLLDQIVE [S62C] | 0.025 |
| RSVMTEEYKVPDGMVWFIIGRGGEQISRIQQESGCKIQIAPDSGGLPERSCMLTGTPESVQSAKRLLDQIVE [G16W] | -0.09 |
| RSVMTEFYKVPDGMVGFIIGRGGEQISRIQQESGCKIQIAPDSGGLPERSCMLTGTPESVQSAKRLLDQIVE [E7F] | -0.153 |
| RSVMTEEYKVPDGMVGFIIGRGQEQISRIQQESGCKIQIAPDSGGLPERSCMLTGTPESVQSAKRLLDQIVE [G23Q] | -0.062 |
| RSVMTEEYKVPDGMVGFIIGRGGEQISRYQQESGCKIQIAPDSGGLPERSCMLTGTPESVQSAKRLLDQIVE [I29Y] | -0.246 |
| RSVMTEEYKVPDGMVGFIIGRGGEQISRIQQESGCKIQIAPDSGGLPERSCMLTGTPESVQSAKRLWDQIVE [L67W] | -0.94 |
| RSVMTEEYKVPDGMVGFIIGRGGDQISRIQQESGCKIQIAPDSGGLPERSCMLTGTPESVQSAKRLLDQIVE [E24D] | -0.064 |
| RSVMTEEYKVPDGMVGFIIGRGGEQISRIQQESGKKIQIAPDSGGLPERSCMLTGTPESVQSAKRLLDQIVE [C35K] | -0.945 |
| RSVMTEEYKVPDGMVGFIIGRGGEQISRIQQESGCKIGIAPDSGGLPERSCMLTGTPESVQSAKRLLDQIVE [Q38G] | -0.09 |
| RSVMTEEYKVPDGMVGFIIGRGGEQISRIQQESGMKIQIAPDSGGLPERSCMLTGTPESVQSAKRLLDQIVE [C35M] | -0.847 |
| RSVMTEEYKVPDGMVMFIIGRGGEQISRIQQESGCKIQIAPDSGGLPERSCMLTGTPESVQSAKRLLDQIVE [G16M] | -0.098 |
| RSVMTEEYKVPDGMVGFIIGRGGEQISRIQQESGCKIQIAPDSGGLPERSCMLTGTPESVQSAKRLGDQIVE [L67G] | -0.583 |
| RSVMTEEYKVPDGMVGRIIGRGGEQISRIQQESGCKIQIAPDSGGLPERSCMLTGTPESVQSAKRLLDQIVE [F17R] | 0.047 |
| RSVMTEEYKVPDGMVGFIIGRGGEQISRIQQESGCKIQIAPDSAGLPERSCMLTGTPESVQSAKRLLDQIVE [G44A] | -0.013 |
| RSVMTEEYKVFDGMVGFIIGRGGEQISRIQQESGCKIQIAPDSGGLPERSCMLTGTPESVQSAKRLLDQIVE [P11F] | -0.206 |
| RSVMTEEYKVPDGMVGFIIGRGGEQISRIQQESGCKIQHAPDSGGLPERSCMLTGTPESVQSAKRLLDQIVE [I39H] | -0.266 |
| RSVMTEEYKVPDGMVGFIIGRGGEQISRIQQESGCKIQIAPDSGGLPERSCMLTGTPESVQWAKRLLDQIVE [S62W] | -0.059 |
| RSVMTEEYKVPDGMVGFIIGRGGEQISRIQQESGCKIQIAPDSGGLPEYSCMLTGTPESVQSAKRLLDQIVE [R49Y] | -0.072 |
| RSVMTEEYKVPDGMVGFIIGRGGEQISRIQQESGCKIQIAPDSGGLPERSCMLTGTPESVQSAKRLLDQIIE [V71I] | -0.077 |
| RSVMTEEYKVPDGMVGFIIGRGGFQISRIQQESGCKIQIAPDSGGLPERSCMLTGTPESVQSAKRLLDQIVE [E24F] | -0.013 |
| RSVMTEEYKVPDGMVGFIIGRGGEQISRIQQESGCKIQIAPDSGGLPERSCMLTGTPESVQSAKRLLDQIEE [V71E] | -0.089 |
| RSVMTEEYKVPDGMVGFIIGRGGEQISRIQQESGCKIQIAPDSGGLPERSCMLTGTPESVQSAKRLLDQIAE [V71A] | -0.036 |
| RSVMTEEYAVPDGMVGFIIGRGGEQISRIQQESGCKIQIAPDSGGLPERSCMLTGTPESVQSAKRLLDQIVE [K9A] | -0.114 |
| RSVMTEEYKVPDGMVGFIIGRGGEQISRIQQESGCKIQIAPDSGGLPERCCMLTGTPESVQSAKRLLDQIVE [S50C] | -0.015 |
| RSVMTEEYKVPDGMVGFIIGRGLEQISRIQQESGCKIQIAPDSGGLPERSCMLTGTPESVQSAKRLLDQIVE [G23L] | -0.174 |
| RSVMTEEYKVPDGMVGFIIGRGGEQISRIQQESGCKIQIAPDSGGLPERSCMLTGTPESVQSAKWLLDQIVE [R65W] | -0.082 |
| RSVMTEEYKVPDGMVGFIIGRGGEQISRIQQESGCKIQIYPDSGGLPERSCMLTGTPESVQSAKRLLDQIVE [A40Y] | -0.088 |
| RSVMTEEYKVPDGMVGFIIGRGGEQISRIQQESGCKSQIAPDSGGLPERSCMLTGTPESVQSAKRLLDQIVE [I37S] | -0.788 |
| RSVMTEEYKVPDGMVGFIIGRGGEQISRIQQESGCKIQIAPDSGGLPERSCMLTGDPESVQSAKRLLDQIVE [T56D] | -0.067 |
| RSVMTEEYKVPDGMVGFIIGRGGEQISRIQQESGCKIFIAPDSGGLPERSCMLTGTPESVQSAKRLLDQIVE [Q38F] | -0.031 |
| RSVMTEEYKVHDGMVGFIIGRGGEQISRIQQESGCKIQIAPDSGGLPERSCMLTGTPESVQSAKRLLDQIVE [P11H] | -0.162 |
| RSVMTGEYKVPDGMVGFIIGRGGEQISRIQQESGCKIQIAPDSGGLPERSCMLTGTPESVQSAKRLLDQIVE [E6G] | -0.092 |
| RSVMTEEYKVPDGMVGFIIGRGGEQISRIQQESGCKIQIAPDSGGLPERNCMLTGTPESVQSAKRLLDQIVE [S50N] | 0.038 |
| RSVMTEEYKVPDGMVGFIIGRGGEQISRIQQESGCKIQIAPDSGGLPERSCMLTGTPQSVQSAKRLLDQIVE [E58Q] | 0.001 |
| RSVMNEEYKVPDGMVGFIIGRGGEQISRIQQESGCKIQIAPDSGGLPERSCMLTGTPESVQSAKRLLDQIVE [T5N] | -0.063 |
| RSVMTEEYKVPDGMVGFIIGRGGEQISRIQQESGCKIQIAPDSGGLPARSCMLTGTPESVQSAKRLLDQIVE [E48A] | -0.041 |
| RSVMTEEYKVPDGMVGFIIGRGGEQISRIQQESGCKCQIAPDSGGLPERSCMLTGTPESVQSAKRLLDQIVE [I37C] | -0.129 |
| RSVMTDEYKVPDGMVGFIIGRGGEQISRIQQESGCKIQIAPDSGGLPERSCMLTGTPESVQSAKRLLDQIVE [E6D] | -0.104 |
| GSVMTEEYKVPDGMVGFIIGRGGEQISRIQQESGCKIQIAPDSGGLPERSCMLTGTPESVQSAKRLLDQIVE [R1G] | -0.102 |
| RSVMTEEYKVPDGMVGFIIGRGGEQISRIQQETGCKIQIAPDSGGLPERSCMLTGTPESVQSAKRLLDQIVE [S33T] | -0.034 |
| RSVMTEEYKVPDGMVGFIIGRGGEQISRIQQESPCKIQIAPDSGGLPERSCMLTGTPESVQSAKRLLDQIVE [G34P] | -0.837 |
